B1: LINE1-mini (parent)
chain: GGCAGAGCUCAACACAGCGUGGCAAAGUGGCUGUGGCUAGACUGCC

# Variants of: B1
# PROTOCOL_TEXT: self-cleavage, relative activity (ratio to wild type); higher = more cleavage; in vitro, sequencing; the parent is a self-cleaving ribozyme
# if value of self-cleavage reaches 0.05, tag Satisfied; if it stays below, tag Not satisfied

{"columns": ["CHAIN", "ASSIGNED_CATEGORY"],
 "data": [
  ["GGCAGAGCUCAACACAGCGUGCCAAACUGGCUGUGGCUAGACUGCC [G22C G27C]", "Satisfied"],
  ["GGCAGAGCUCACCACAGCGUGGCAAAGUUGCUGUGGCUAGACUGCC [A12C G29U]", "Not satisfied"],
  ["GGCAGAGCUCAGCACAGCGUGGCAAAGUGGCUGUGGCUAGCCUGCC [A12G A41C]", "Not satisfied"],
  ["GGCAGAGCUCAACGCAGCGUGGCAAAGUGGCUGUGGCUCGACUGCC [A14G A39C]", "Satisfied"],
  ["GGCAGAGCUCAACACAGCGUGGCAAAGGGGCUGUUGCUAGACUGCC [U28G G35U]", "Satisfied"]
]}

From: the RNAGym collection of RNA variant scans (doi:10.7554/elife.90254)
